The values you see were collected from patent US10962528B2.

Reported Ex/Em1, excitation is given for each of the following molecules.
EXPERIMENT DESCRIPTION: Steady state fluorescence spectra and quantum yield
Format: physicochemical
CONDITION CONTEXT: in complex with biliverdin, red excitation
Procedure: All experiments were performed with purified SFP samples (apo and holo forms) at pH 7.5 and room temperature. UV-Visible absorbance spectra of native and recombinant SFP were recorded from 800 to 200 nm with ultraspec 2100 pro spectrophotometer from Amersham Biosciences. CD spectra were measured on JASCO J-815 Spectropolarimeter. Steady state fluorescence, excitation, binding and photobleaching studies were monitored on Horiba Jobin Yvon Fluoromax-4 fluorimeter. […]
READOUT TYPE: Ex/Em1, excitation

MOLECULE	RESULT
Wild-type SFP: Sandercyanin fluorescent protein from walleye Sander vitreus mucus, biliverdin-binding lipocalin tetramer; SEQ ID NO:1 (recombinant SEQ ID NO:31) (protein, listed as Sander vitreus, biliverdin chromophore) MNAIQVISLTLLSVLAAKAMFIKPGRCPKPAVQEDFDAARYLGVWYDIQRLPNKFQKGECATATYSLSPGVGFSVFNRERLANGTIKSVIGSAIAEDPCEPAKLQFFHENAAPVPYWVLSTDYDNYALVYSCINLGASHAAYASIVSRQPTLPEETIKKLQGTMSSFGVGVDTLLTTNQDAAYCSAMAQ	630 nm
SFP-FH88insGG: L135E monoSFP extended with glycine residues at position 88, SEQ ID NO:5 (protein) MFIKPGRCPKPAVQEDFDAARYLGVWYDIQRLPNKFQKGECATATYSLSPGVGFSVFNRERLANGTIKSVIGSAIAEDPCEPAKLQFGGFHENAAPVPYWVLSTDYDNYALVYSCINEGASHAAYASIVSRQPTLPEETIKKLQGTMSSFGVGVDTLLTTNQDAAYCSAMNQ	570 nm
SFP-L135E: monomeric SFP variant L135E, SEQ ID NO:3 (protein) FIKPGRCPKPAVQEDFDAARYLGVWYDIQRLPNKFQKGECATATYSLSPGVGFSVFNRERLANGTIKSVIGSAIAEDPCEPAKLQFFHENAAPVPYWVLSTDYDNYALVYSCINEGASHAAYASIVSRQPTLPEETIKKLQGTMSSFGVGVDTLLTTNQDAAYCSAMNQ	600 nm
